Target: T1, human IL-33 (R&D Systems, #3625-IL-010/CF) (human) (UniProt O95760)
T1 sequence (looked up): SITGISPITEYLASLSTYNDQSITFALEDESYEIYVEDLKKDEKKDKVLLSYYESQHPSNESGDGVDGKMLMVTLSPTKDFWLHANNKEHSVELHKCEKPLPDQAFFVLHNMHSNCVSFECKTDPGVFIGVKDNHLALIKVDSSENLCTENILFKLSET
Assay: SPR Biacore T200, 37 C
Readout label: Kd (nM)
Numbers only, in nM.

See these solved cases before continuing.
INSERT INTO measurements (binder, endpoint_value) VALUES
  ('H4H9675P (antibody, from another filing, IgG4, V domains shown) VH: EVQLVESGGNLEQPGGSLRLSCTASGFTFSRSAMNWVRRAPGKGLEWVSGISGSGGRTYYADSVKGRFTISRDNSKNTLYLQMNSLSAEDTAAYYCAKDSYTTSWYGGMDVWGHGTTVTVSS VL: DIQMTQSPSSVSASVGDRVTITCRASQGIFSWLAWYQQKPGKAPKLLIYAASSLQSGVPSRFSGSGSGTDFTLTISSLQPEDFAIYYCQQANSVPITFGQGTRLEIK', 0.192),
  ('H4H9663P (antibody, from another filing, IgG4, V domains shown) VH: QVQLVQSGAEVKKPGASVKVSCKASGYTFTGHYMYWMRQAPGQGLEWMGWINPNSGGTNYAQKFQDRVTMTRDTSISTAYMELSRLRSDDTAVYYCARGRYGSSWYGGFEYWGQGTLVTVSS VL: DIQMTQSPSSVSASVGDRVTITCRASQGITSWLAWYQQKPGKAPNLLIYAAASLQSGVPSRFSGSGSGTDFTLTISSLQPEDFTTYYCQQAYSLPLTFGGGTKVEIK', 0.517),
  ('H4H9670P (antibody, from another filing, IgG4, V domains shown) VH: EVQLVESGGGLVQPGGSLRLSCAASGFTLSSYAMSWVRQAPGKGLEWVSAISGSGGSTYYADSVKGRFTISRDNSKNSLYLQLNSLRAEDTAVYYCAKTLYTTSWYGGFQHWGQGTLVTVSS VL: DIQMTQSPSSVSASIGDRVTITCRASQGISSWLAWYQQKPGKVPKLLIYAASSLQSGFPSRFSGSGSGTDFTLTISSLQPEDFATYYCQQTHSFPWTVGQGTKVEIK', 0.519);

Please look at the following binder next.
# Kd of H4H9660P (antibody, from another filing, IgG4, V domains shown) VH: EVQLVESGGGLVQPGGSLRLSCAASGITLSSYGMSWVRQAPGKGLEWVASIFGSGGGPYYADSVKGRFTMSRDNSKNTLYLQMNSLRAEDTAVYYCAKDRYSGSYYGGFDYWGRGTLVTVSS VL: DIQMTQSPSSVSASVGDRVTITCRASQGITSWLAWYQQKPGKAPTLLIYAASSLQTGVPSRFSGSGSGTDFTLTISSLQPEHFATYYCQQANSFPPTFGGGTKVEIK = 0.302
